Molecular target: c-Kit(V654A) (Homo sapiens, UniProt P10721, V654A)
Assay: c-Kit(V654A) assay
Type: biochemical
Conditions: Table 1; 200 μM ATP
pIC50: −log10 of the molar value.
measurement.name: pIC50

# annotated cases, reported pIC50 shown
{"columns": ["compound", "value"],
 "data": [
  ["COCCOc1cc2[nH]nc(-c3cc(-c4ccc(C(=O)N5C[C@@H]6CS(=O)(=O)C[C@@H]6C5)cc4)no3)c2cc1F", 9.49],
  ["CCOc1cc2[nH]nc(-c3cc(-c4ccc(C(=O)N5CCN(C6COC6)CC5)cc4)no3)c2cc1F", 7.33],
  ["COCCOc1cc2[nH]nc(-c3cc(-c4ccc(C(=O)N5C[C@@H]6CN(C7COC7)C[C@@H]6C5)cc4)no3)c2cc1F", 8.96]
]}

A: COCCOc1cc2[nH]nc(-c3cc(-c4ccc(C(=O)N5CC[C@H](F)C5)cc4)no3)c2cc1F
B: Cn1cc(-c2ccc3c(-c4cc(-c5ccc(C(=O)N6CCC[C@@H]6C(C)(C)O)cc5)no4)n[nH]c3c2)cn1
Returns: the label, A or B , whose recorded pIC50 is the lower number. // caller expects the label of the chosen entry
B
(B: 7.70, A: 9.04)

A: COCCOc1cc2[nH]nc(-c3cc(-c4ccc(C(=O)N5CCN(C6CCOC6)CC5)cc4)no3)c2cc1F (stereo not shown)
B: COCCOc1cc2[nH]nc(-c3cc(-c4ccc(C(=O)N5CC(N6CC7(COC7)C6)C5)cc4)no3)c2cc1F
Between A and B , whose recorded pIC50 is greater? // caller expects the label of the chosen entry
A

====

Molecular target: c-Kit(V654A) (Homo sapiens, UniProt P10721, V654A)
Assay: c-Kit(V654A) assay
Format: biochemical
Conditions: Table 1; 200 μM ATP
measurement.name: IC50 (nM)

# annotated cases, reported IC50 shown
{"columns": ["compound.structure", "tested.system", "value"],
 "data": [
  ["COCCOc1cc2[nH]nc(-c3cc(-c4ccc(C(=O)N5CCC[C@H]5CS(C)(=O)=O)cc4)no3)c2cc1F", "c-Kit(V654A) (Homo sapiens, UniProt P10721, V654A)", 0.75],
  ["COCCOc1cc2[nH]nc(-c3cc(-c4ccc(S(C)(=O)=O)cc4)no3)c2cc1Cl", "c-Kit(V654A) (Homo sapiens, UniProt P10721, V654A)", 5.8],
  ["COCCOc1cc2[nH]nc(-c3cc(-c4ccc(C(=O)N5CCN(C6COC6)CC5)c(C)c4)no3)c2cc1F", "c-Kit(V654A) (Homo sapiens, UniProt P10721, V654A)", 2.5]
]}

A: COCCOc1cc2[nH]nc(-c3cc(-c4ccc(C(=O)N5CC(c6nc(C)no6)C5)cc4)no3)c2cc1F
B: COCCOc1cc2[nH]nc(-c3cc(-c4ccc(OC)nc4)no3)c2cc1F
C: COCCOc1cc2[nH]nc(-c3cc(-c4nc(C(=O)N(C)C)cs4)no3)c2cc1F
Please put the entries in order of rising IC50. Answer by writing out the labels in the requested order.
A, B, C
(A: 0.96 nM, B: 27 nM, C: 53 nM)

1: COCCNC(=O)c1ccc2c(-c3cc(-c4ccc(C(=O)N(C)C)cc4)no3)n[nH]c2c1
2: COCCOc1cc2[nH]nc(-c3cc(-c4ccc(C(=O)N5CCO[C@@H](C)C5)cc4)no3)c2cc1F
Returns: the label, 1 or 2 , whose recorded IC50 is the lower number. // caller expects the label of the chosen entry
2

====

Target: c-Kit(V654A) (Homo sapiens, UniProt P10721, V654A)
Assay: c-Kit(V654A) assay
Type: biochemical
Conditions: Table 1; 200 μM ATP
measurement.name: IC50 (nM)

# annotated cases, reported IC50 shown
{"columns": ["compound", "IC50 (nM)"],
 "data": [
  ["COCCOc1cc2[nH]nc(-c3cc(-c4ccc(C(=O)N5C[C@@H]6C[C@H]5CO6)cc4)no3)c2cc1F", 0.65],
  ["COCCOc1cc2[nH]nc(-c3cc(-c4ccc(C(=O)N5CCC[C@H]5CO)cc4)no3)c2cc1F", 0.88],
  ["COCCOc1cc2[nH]nc(-c3cc(-c4ccc(C(=O)N5CCN(C)C[C@@H]5C)cc4)no3)c2cc1F", 1.4],
  ["COc1cc2[nH]nc(-c3cc(-c4ccc(C(=O)N5CCNCC5)cc4)no3)c2cc1F", 3.1],
  ["COCCOc1cc2[nH]nc(-c3cc(-c4ccc(C(=O)N5CCC(N6CCOCC6)C5)cc4)no3)c2cc1F (centres unmarked)", 0.83]
]}

P: COCCOc1cc2[nH]nc(-c3cc(-c4ccc(C(=O)N5CCOCC5)cc4)no3)c2cc1F
Q: COCCOc1cc2[nH]nc(-c3cc(-c4ncc(C(=O)N(C)C)s4)no3)c2cc1F
R: COCCOc1cc2[nH]nc(-c3cc(-c4nc(C(=O)N5CC(F)C5)cs4)no3)c2cc1F
Please put the entries in order of rising IC50. Answer by writing out the labels in the requested order.
P, R, Q
(P: 0.79 nM, R: 38 nM, Q: 55 nM)

====

Molecular target: mutant cKIT (560-576 and V654A) in GIST430/654 cell line (Homo sapiens (Human), UniProt P10721, DEL560-576/V654A)
Sequence (P10721 other isoform, or with tags, fused parts or gaps V654A/del 1-25/del 560-576 limits assumed): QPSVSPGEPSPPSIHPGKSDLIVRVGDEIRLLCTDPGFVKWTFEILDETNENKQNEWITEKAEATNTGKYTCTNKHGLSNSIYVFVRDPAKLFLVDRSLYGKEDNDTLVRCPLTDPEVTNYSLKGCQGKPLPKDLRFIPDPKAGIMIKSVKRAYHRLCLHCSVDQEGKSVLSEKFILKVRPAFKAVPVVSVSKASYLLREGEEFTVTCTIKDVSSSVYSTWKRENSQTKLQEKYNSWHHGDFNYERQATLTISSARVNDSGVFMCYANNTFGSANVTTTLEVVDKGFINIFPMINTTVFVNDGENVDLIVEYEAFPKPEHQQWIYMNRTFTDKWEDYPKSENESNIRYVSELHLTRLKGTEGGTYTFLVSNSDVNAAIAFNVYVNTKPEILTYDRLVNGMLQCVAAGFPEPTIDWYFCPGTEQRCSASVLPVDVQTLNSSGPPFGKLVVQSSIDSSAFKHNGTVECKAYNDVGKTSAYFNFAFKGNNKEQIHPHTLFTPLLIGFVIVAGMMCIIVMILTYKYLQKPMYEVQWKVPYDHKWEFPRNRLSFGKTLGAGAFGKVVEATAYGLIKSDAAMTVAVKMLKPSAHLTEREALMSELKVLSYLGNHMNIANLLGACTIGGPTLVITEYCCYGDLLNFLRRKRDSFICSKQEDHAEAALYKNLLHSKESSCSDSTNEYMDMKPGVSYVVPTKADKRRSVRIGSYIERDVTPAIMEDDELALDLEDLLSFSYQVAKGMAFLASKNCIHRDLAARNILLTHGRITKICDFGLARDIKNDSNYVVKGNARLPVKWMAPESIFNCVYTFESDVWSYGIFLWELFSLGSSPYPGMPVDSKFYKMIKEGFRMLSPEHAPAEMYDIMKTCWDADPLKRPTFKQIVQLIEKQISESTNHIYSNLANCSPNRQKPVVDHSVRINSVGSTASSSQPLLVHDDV
Assay: Cellular testing of cKIT mutant inhibitors: phospho-Y307-cKIT Luminex assay in GIST430/654 cells
Format: cell-based
Settings: Table 1; cKIT autophosphorylation, compounds 45 min; read-out: GIST 430/654 IC50
Counter-ions that a name gives are not always drawn.
measurement.name: IC50 (nM)

P: [2H]C1([2H])NC([2H])([2H])C([2H])([2H])N(C(=O)c2ccc(-c3cc(-c4n[nH]c5cc(OCCOC)c(F)cc45)on3)cc2)C1([2H])[2H] [A232, hydrochloride]
Q: COCCOc1cc2[nH]nc(-c3cc(-c4ccc(C(=O)N5CCC[C@@H]5C(C)(C)O)nc4)no3)c2cc1F
R: COCCOc1cc2[nH]nc(-c3cc(-c4ccc(C(=O)N5CCN(C6COC6)CC5)c(F)c4)no3)c2cc1F
Rank the 3 compounds: largest IC50 first, smallest last. Answer by writing out the labels in the requested order.
Q, P, R
(Q: 430 nM, P: 100 nM, R: 48 nM)

====

Target: c-Kit(V654A) (Homo sapiens, UniProt P10721, V654A)
Assay: c-Kit(V654A) assay
Assay type: biochemical
Details: Table 2, isoxazole derivatives presently described
measurement.name: IC50 (nM)

I: COCCOc1cc2[nH]nc(-c3cc(-c4ccc(C(=O)N5CCOC[C@H]5C)cc4)no3)c2cc1F
II: COCCOc1cc2[nH]nc(-c3cc(-c4ccc(C(=O)N5CCN(C)C[C@@H]5C)cc4)no3)c2cc1F
Between I and II , whose recorded IC50 is greater? // caller expects the label of the chosen entry
II

====

Target: mutant cKIT (560-576 and V654A) in GIST430/654 cell line (Homo sapiens (Human), UniProt P10721, DEL560-576/V654A)
Test: Cellular testing of cKIT mutant inhibitors: phospho-Y307-cKIT Luminex assay in GIST430/654 cells
Type: cell-based
Conditions: Table 1; cKIT autophosphorylation, compounds 45 min; read-out: GIST 430/654 IC50
Description: Assay Principle for Cellular Testing of cKIT Mutant Inhibitors The GIST430/654 cell line expressing mutated constitutively active cKIT receptor tyrosine kinase ([…]560-576 and V654A) was employed for assessing cellular potency of compounds. Cellular activity of mutant cKIT was determined by the degree of cKIT autophosphorylation at tyrosine 307 using a Luminex-based bead assay. […] The amount of phospho-Y307-cKIT was determined in a Luminex 200 instrument measuring 100 events per well within 60 seconds. […]
pIC50: −log10 of the molar value.
measurement.name: pIC50

{"columns": ["compound", "pIC50"],
 "data": [
  ["COCCOc1cc2[nH]nc(-c3cc(-c4ccc(C(=O)N5CC(C)(N(C)C)C5)cc4)no3)c2cc1F [A181]", 7.40],
  ["COCCOc1cc2[nH]nc(-c3cc(-c4ccc(C(=O)N5CCN(C)CC5)cc4)on3)c2cc1F [A113]", 7.09],
  ["COCCOc1cc2[nH]nc(-c3cc(-c4ccc(N=S(C)(C)=O)cc4)no3)c2cc1F [A47]", 7.11]
]}

I: COCCOc1cc2[nH]nc(-c3cc(-c4ccc(C(=O)N5CCN(C6COC6)C[C@@H]5C)cc4)no3)c2cc1F [A191]
II: COCCOc1cc2[nH]nc(-c3cc(-c4ccc(C(=O)N5CC[C@H]5C(C)(C)O)cc4)no3)c2cc1F [A59]
III: COCCOc1cc2[nH]nc(-c3cc(-c4ccc(N5CC[C@H]6[C@@H]5CCN6C)cc4)no3)c2cc1F (relative stereo) [A125]
Rank the 3 compounds: largest pIC50 first, smallest last. Answer by writing out the labels in the requested order.
II, I, III

a: COCCOc1cc2[nH]nc(-c3cc(-c4ccc(C(=O)N(C)C5CC5)cc4)no3)c2cc1F [A31]
b: COCCOc1cc2[nH]nc(-c3cc(-c4ccc(-n5ncccc5=O)cc4)no3)c2cc1F [A142]
Returns: the label, a or b , whose recorded pIC50 is the lower number. // caller expects the label of the chosen entry
b
(b: 7.12, a: 7.46)
